test: Inhibitory activity against O-linked N-acetyl-glucosaminidase (O-GlcNAc'ase)
Parameters: species or system Rattus norvegicus
measured_endpoint: pKi
Answers are plain numbers, as −log10 of the molar value.

Which measured pKi value corresponds to CC(=O)NC1[C@@H](O)[C@@H](O)C(CO)O[C@H]1SC1CC(=O)N(c2ccc(C(=O)c3ccccc3)cc2)C1=O (stereo partly specified) ?
4.30
